Hello, the source for this data is the supplement of paper PMC11780869, in case you need it.

cleaved RNA product abundance: recorded values
Tested on: Bacillus subtilis
Assay: cleaved RNA product abundance (RNA/gDNA barcode ratio) relative to median wild-type variant (ratio to wild type); higher = more accumulation of the downstream cleavage product
Conditions: experiment (reporter, strain, medium): exp 8a: truncated aprE reporter, strain BJT201 with 2% xylose (RNase J1 expressed); cleavage site: glnRA (positions -5 to +31 mutated)

Worked cases, answers included:
Query: Return reported cleaved RNA product abundance; argument: CGACATGTCCCGCTTCTTTCATTAATCCGTTAGCAACTGTTTTGCTATAAAAATTTACCTTTTAAGAGGAGGAAT
Reply: 0.405

Query: Please do the same for CGACATGTCCCGCTTCTTTCATTAATCCGTTAGCAATTGTTTTGCTATATACATTTACCTTTTAAGAGGAGGAAT as well.
Reply: 1.24

Query: Also need CGACATGTCCCGCTTCTTTCATTAATCGCTTAGCAACTGTTTTGCTATATACATTTACCTTTTAAGAGGAGGAAT , thanks.
Reply: 0.335

Query: Same read-out for CGACATGTCCCGCTTCTTTCATTAATCCGTTAGCAACTGTTTTGCTCTATACATTTACCTTTTAAGAGGAGGAAT ?
Reply: 0.265

Query: What would you report for CGACATGTCCCGCTTCTTTCATTAATACGTTAGCAACTGTTTTGCTATAAACATTTACCTTTTAAGAGGAGGAAT ?
Reply: 0.505

Query: What would you report for CGACATGTCCCGCTTCTTTCATTAATCCGTTAGCAACTGTTTTGCTATAGACATTCACCTTTTAAGAGGAGGAAT ?
Reply: 0.435

Query: Now this one: CGACATGTCCCGCTTCTTTCATTAATCCGTTATCAACTGTTTTGCTATATCCATTTACCTTTTAAGAGGAGGAAT
Reply: 0.136

Query: Item: CGACATGTCCCGCTTCTTTCATTAATCAGTTAGTAACTGTTTTGCTATATACATTTACCTTTTAAGAGGAGGAAT
Reply: 0.421

Others:
Query: Can you look up the measured cleaved RNA product abundance of CGACATGTCCCGCTTCTTTCATTAATCCGTTAGAAACTGTTTTGCTATATATATTTACCTTTTAAGAGGAGGAAT for me?
Reply: 0.272

Query: Likewise for CGACATGTCCCGCTTCTTTCATTAATCTGTTAGCAACTGTTTTGCCATATACATTTACCTTTTAAGAGGAGGAAT ?
Reply: 0.108

Query: Could you do the same for CGACATGTCCCGCTTCTTTCATTAATCAGTTAGCAACTGTTTTGCTATACACATTTACCTTTTAAGAGGAGGAAT , please?
Reply: 0.225

Query: Would you kindly repeat that for CGACATGTCCCGCTTCTTTCATTAATCCGTTAGCAACTGTTTTGCTATATACATTTACTTTTTAAGAGGAGGAAT ?
Reply: 1.23

Query: Likewise for CGACATGTCCCGCTTCTTTCATTAATACGTTAACAACTGTTTTGCTATATACATTTACCTTTTAAGAGGAGGAAT ?
Reply: 0.195

Query: // next record CGACATGTCCCGCTTCTTTCATTAAACCGTTATCAACTGTTTTGCTATATACATTTACCTTTTAAGAGGAGGAAT
Reply: 0.218

Query: Next record, please: CGACATGTCCCGCTTCTTTCATTAATCCGTTAGCAACTGTTTTGCTATATAAATATACCTTTTAAGAGGAGGAAT
Reply: 1.3

Query: Please answer likewise for CGACATGTCCCGCTTCTTTCATTAATCCGTGAGCAACTGTTTTGCTTTATACATTTACCTTTTAAGAGGAGGAAT
Reply: 0.184

----------
Tested on: Bacillus subtilis
Assay: cleaved RNA product abundance (RNA/gDNA barcode ratio) relative to median wild-type variant (ratio to wild type); higher = more accumulation of the downstream cleavage product
Conditions: experiment (reporter, strain, medium): exp 4a: truncated aprE reporter, strain BJT201 with 2% xylose (RNase J1 expressed); cleavage site: cggR-gapA (positions -7 to +36 mutated)
# binarize cleaved RNA product abundance: threshold 0.2 inclusive, high side Satisfied, low side Not satisfied

Query: Quick check: does ACAGACGAAGGAGCCGCAAAGAGGTTATTAAGGGATGAATAATCACTCAATATAAATATCTCTCACTTATTTAAA have cleaved RNA product abundance greater than or equal to 0.2?
Reply: Not satisfied

Query: Follow-up entry: ACAGACGAAGGAGCCGCAAATAAATTATTAAGGGATGAATAATCCCCCAATATAAATATCTCTCACTTATTTAAA
Reply: Satisfied

Query: Please give the result for ACAGACGAAGGAGCCGCAGAGAAGTTATTAAGTGATGAATAATCCCTCAATATAAATATCTCTCACTTATTTAAA too.
Reply: Not satisfied

Query: Same question, ACAGACGAAGGAGCCGCACAGAAGTTATTAAGTGATGAATAATCCCTCAATATAAATATCTCTCACTTATTTAAA this time
Reply: Not satisfied

Query: Also ACAGACGAAGGAGCCGCAAAGAAGTTAATAAGGGATGAATAATCCCACAATATAAATATCTCTCACTTATTTAAA ?
Reply: Satisfied

Query: Repeat for the following sequence: ACAGACGAAGGAGCCGCAAAGAAGTTATTACGGGATGAATAATCCCTCAATATAAATATTTCTCACTTATTTAAA
Reply: Satisfied

Query: Could you do the same for ACAGACGAAGGAGCCGCAAAGTAGTTATTAAGGGATCAATAATCCCTCAATATAAATATCTCTCACTTATTTAAA , please?
Reply: Satisfied

Query: Request: ACAGACGAAGGAGCCGCAAAGAAGTTATAAAGGGATGAATAAGCCCTCAATATAAATATCTCTCACTTATTTAAA
Reply: Not satisfied

Query: Also check ACAGACGAAGGAGCCGCAAAGAACTTATCAAGGGATGAATAATCCCTCAATATAAATATCTCTCACTTATTTAAA
Reply: Satisfied

Query: Proceed to ACAGACGAAGGAGCCGCAAAGAAGTTATTAAGTAATGAATAACCCCTCAATATAAATATCTCTCACTTATTTAAA
Reply: Not satisfied

***
Query: API: above_or_equal(metric=cleaved RNA product abundance, cutoff=0.2) for item ACAGACGAAGGAGCCGCAAAGAAGTTATTAAGTGAGGAATAATCCCTCAATATAAATATCTCTCACTTATTTAAA
Reply: Not satisfied

Query: Repeat for the following sequence: ACAGACGAAGGAGCCGCAAAGAAGTAATTAAGGGATGAATAAACCCTCATTATAAATATCTCTCACTTATTTAAA
Reply: Not satisfied

----------
Test system: Bacillus subtilis
Assay: cleaved RNA product abundance (RNA/gDNA barcode ratio) relative to median wild-type variant (ratio to wild type); higher = more accumulation of the downstream cleavage product
Details: experiment (reporter, strain, medium): exp 2b: truncated aprE reporter, strain BJT200; cleavage site: cggR-gapA (positions -7 to +36 mutated)
measurement-type: cleaved RNA product abundance
Write no unit; give the number alone.

Take a look at these entries with their results.
Query: Which cleaved RNA product abundance value belongs to ACAGACGAAGGAGCCGCAAAGAAGTTATTACGGAATGAATAATCCCTCAATATAAATATCTCTCACTTATTTAAA ?
Reply: 0.1

Query: Same lookup for ACAGACGAAGGAGCCGCAAAGAAGTTATTAATGTATGAATAATCCCTCAATATAAATATCTCTCACTTATTTAAA , please.
Reply: 0.101

More entries:
Query: Returns the measured cleaved RNA product abundance for the input sequence. Input: ACAGACGAAGGAGCCGCAAAGAAGTTATTAAGGGTTGAATAATCACTCAATATAAATATCTCTCACTTATTTAAA
Reply: 0.098

----------
System: Bacillus subtilis
Experiment: cleaved RNA product abundance (RNA/gDNA barcode ratio) relative to median wild-type variant (ratio to wild type); higher = more accumulation of the downstream cleavage product
Settings: experiment (reporter, strain, medium): exp 8a: truncated aprE reporter, strain BJT201 with 2% xylose (RNase J1 expressed); cleavage site: glnRA (positions -5 to +31 mutated)
measurement-type: cleaved RNA product abundance
Response field accepts a number only; no unit should be typed.

Below: 10 sequences and their reported cleaved RNA product abundance.
Query: Please report the recorded cleaved RNA product abundance for CGACATGTCCCGCTTCTTTCATTAATCCGTTAGCAAATGTTTTGATATATACATTTACCTTTTAAGAGGAGGAAT .
Reply: 0.418

Query: Please give the result for CGACATGTCCCGCTTCTTTCATTAATCCGTTACCAACTGTTTTGCTATATACATTTTCCTTTTAAGAGGAGGAAT too.
Reply: 0.231

Query: Next record, please: CGACATGTCCCGCTTCTTTCATTAATCCCTTAGCAACTGTTTTGCTATATACATTTACATTTTAAGAGGAGGAAT
Reply: 0.242

Query: And then CGACATGTCCCGCTTCTTTCATTAATCCGTTAGCAACTGTTTTACTATATACATCTACCTTTTAAGAGGAGGAAT , what is it?
Reply: 0.506

Query: What do you get for CGACATGTCCCGCTTCTTTCATTAATCCGTTAGCAACAGTTTTGCTATATAAATTTACCTTTTAAGAGGAGGAAT ?
Reply: 0.69

Query: Same read-out for CGACATGTCCCGCTTCTTTCATTAATCCGTTATTAACTGTTTTGCTATATACATTTACCTTTTAAGAGGAGGAAT ?
Reply: 0.337

Query: What do you have for CGACATGTCCCGCTTCTTTCATTACTCCGTTAGCAACTGTTTAGCTATATACATTTACCTTTTAAGAGGAGGAAT ?
Reply: 0.694

Query: Quick one: CGACATGTCCCGCTTCTTTCATTAATCCGTTAGCAACTGTTTTGCTATATACACTTACCTTTTAAGAGGAGGAAT
Reply: 0.964

Query: Cool, now CGACATGTCCCGCTTCTTTCATTAATCCATTACCAACTGTTTTGCTATATACATTTACCTTTTAAGAGGAGGAAT
Reply: 0.17

Query: Okay, and CGACATGTCCCGCTTCTTTCATTAATCCGTTACCAACTGTTTAGCTATATACATTTACCTTTTAAGAGGAGGAAT ?
Reply: 0.208

Query sequence follows.
Query: So what does the record say about cleaved RNA product abundance for CGACATGTCCCGCTTCTTTCATTAATCTGTTAGCAACTGTTTTGCTATATAGATTTACCTTTTAAGAGGAGGAAT ?
Reply: 0.587
